molecular target: HLA-A*02:01 (Homo sapiens, UniProt P04439, D140Y/D185E/D98H/E176V/E277Q/G131W/G231S/I119V/I121R/I166T/I218V/L300P/L318F/N151K/N90K/P208A/P217A/Q86G/Q94H/R138H/R169H/T345S); experiment: MHC binding assay (UV-ligand exchange, ELISA of exchange yield); conditions: binding to HLA-A*02:01, UV-ligand exchange
readoutLabel: Peptide exchange (MHC class I binding score, peptide exchange yield)

Please review the entries below; each comes with its answer.
[[record]]
substance = "343 (SLLEVNEESTV; listed as Homo sapiens) [compound 343]"
result = "“+++” (≥50 = +++)"

[[record]]
substance = "366 (RLLDMGETDLML; listed as Homo sapiens) [compound 366]"
result = "“+++” (≥50 = +++)"

[[record]]
substance = "426 (RLADKSVLV; listed as Homo sapiens) [compound 426]"
result = "“+++” (≥50 = +++)"

[[record]]
substance = "610 (LLAPTPYIIGV; listed as Homo sapiens) [compound 610]"
result = "“+++” (≥50 = +++)"

[[record]]
substance = "609 (ALWKQLLEL; listed as Homo sapiens) [compound 609]"
result = "“+++” (≥50 = +++)"

[[record]]
substance = "354 (LILEGVDTV; listed as Homo sapiens) [compound 354]"
result = "“++” (≥20% = ++)"

[[record]]
substance = "272 (ALGNTVPAV; listed as Homo sapiens) [compound 272]"
result = "“+++” (≥50 = +++)"

[[record]]
substance = "228 (AMQEYIAVV; listed as Homo sapiens) [compound 228]"
result = "“++” (≥20% = ++)"


Documented Peptide exchange (MHC class I binding score, peptide exchange yield) of 225 (SLLKVLPAL; listed as Homo sapiens) [compound 225] : “+++” (≥50 = +++)
